biological target: CDK7/cyclinH/MAT1 trimeric complex (Homo sapiens); assay: In vitro CDK7 assay, potency of irreversible covalent inhibitors (kinact/KI), coupled PK/LDH ADP readout at 340 nm; details: read-out: CDK7 (20 nM enz.) (kinact/KI, M^−1*s^−1), 20 nM enzyme
Sequence (P50613 whole entry): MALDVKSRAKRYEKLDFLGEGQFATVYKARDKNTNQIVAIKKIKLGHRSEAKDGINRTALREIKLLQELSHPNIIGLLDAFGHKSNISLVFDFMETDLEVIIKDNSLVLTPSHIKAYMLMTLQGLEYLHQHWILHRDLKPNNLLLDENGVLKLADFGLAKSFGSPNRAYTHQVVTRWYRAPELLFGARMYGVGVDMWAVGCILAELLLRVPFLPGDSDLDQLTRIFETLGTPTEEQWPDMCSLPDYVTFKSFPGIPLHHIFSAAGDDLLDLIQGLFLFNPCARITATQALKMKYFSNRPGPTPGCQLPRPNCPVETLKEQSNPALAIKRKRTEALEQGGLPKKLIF
Sequence (P51946 whole entry partner): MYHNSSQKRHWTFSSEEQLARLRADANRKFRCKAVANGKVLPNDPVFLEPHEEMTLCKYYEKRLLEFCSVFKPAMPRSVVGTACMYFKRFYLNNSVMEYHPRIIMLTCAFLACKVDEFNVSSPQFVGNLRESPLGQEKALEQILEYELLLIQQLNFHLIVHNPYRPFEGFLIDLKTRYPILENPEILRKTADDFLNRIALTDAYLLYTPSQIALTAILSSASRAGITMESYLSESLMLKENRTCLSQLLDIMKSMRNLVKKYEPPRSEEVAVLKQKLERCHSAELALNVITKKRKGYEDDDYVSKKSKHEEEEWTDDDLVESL
Sequence (P51948 whole entry partner): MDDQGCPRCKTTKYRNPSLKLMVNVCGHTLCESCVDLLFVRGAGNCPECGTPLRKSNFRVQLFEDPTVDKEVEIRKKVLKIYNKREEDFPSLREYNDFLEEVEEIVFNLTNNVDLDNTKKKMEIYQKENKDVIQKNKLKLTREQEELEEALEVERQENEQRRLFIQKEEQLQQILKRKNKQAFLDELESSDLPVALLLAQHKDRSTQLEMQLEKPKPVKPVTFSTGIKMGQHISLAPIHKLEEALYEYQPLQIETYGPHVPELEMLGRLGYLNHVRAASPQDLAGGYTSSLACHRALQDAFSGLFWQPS
readout: kinact/KI (M⁻¹ s⁻¹)

For orientation, consider the following solved cases.
{"columns": ["compound", "kinact/KI (M⁻¹ s⁻¹)"],
 "data": [
  ["C=CC(=O)N1CC[C@@H](N2CC(c3cc4c(c(C)n3)O[C@H](C)c3c(N5CCOCC5)ccnc3N4)C2)C1 (single isomer, unassigned)", 485],
  ["C=CC(=O)N1CC(N2CCCN(C)[C@H](c3cc(C)c4c(c3)Nc3nccc(C5CCOCC5)c3CO4)C2)C1 (single isomer, unassigned)", 3.33]
]}

P = CC#CC(=O)N1CCC(N2CC[C@@H](c3cc4c(c(C)n3)OCc3c(N5CCOCC5)ccnc3N4)C2)CC1 (single isomer, unassigned)
Q = C=CC(=O)N1CC(N2CC(c3cc4c(c(C)n3)OC(C)c3c(N5CCOCC5)ccnc3N4)C2)C1 (stereo not drawn)
IN: Kindly identify the item with the lower kinact/KI figure among these two: P and Q Indicate which entry you chose by stating its label.
OUT: P

I = C=CC(=O)N1CC(N2CC[C@@H](c3cc4c(c(C)n3)O[C@@H](C)c3c(N5CCOCC5)ccnc3N4)C2)C1 (single isomer, unassigned) [Compound 243]
II = C=CC(=O)N1CCC(N2CC(c3cc(F)c4c(c3)Nc3nccc(-c5cnn(C)c5)c3CO4)C2)CC1
IN: Sort I and II by kinact/KI descending and give the first. Indicate which entry you chose by stating its label.
OUT: II
